Cited source: patent US20220402985A1

Target: ErbB4 on neonatal rat cardiomyocytes (rat) (UniProt Q62956)
Sequence (Q62956 26-1308): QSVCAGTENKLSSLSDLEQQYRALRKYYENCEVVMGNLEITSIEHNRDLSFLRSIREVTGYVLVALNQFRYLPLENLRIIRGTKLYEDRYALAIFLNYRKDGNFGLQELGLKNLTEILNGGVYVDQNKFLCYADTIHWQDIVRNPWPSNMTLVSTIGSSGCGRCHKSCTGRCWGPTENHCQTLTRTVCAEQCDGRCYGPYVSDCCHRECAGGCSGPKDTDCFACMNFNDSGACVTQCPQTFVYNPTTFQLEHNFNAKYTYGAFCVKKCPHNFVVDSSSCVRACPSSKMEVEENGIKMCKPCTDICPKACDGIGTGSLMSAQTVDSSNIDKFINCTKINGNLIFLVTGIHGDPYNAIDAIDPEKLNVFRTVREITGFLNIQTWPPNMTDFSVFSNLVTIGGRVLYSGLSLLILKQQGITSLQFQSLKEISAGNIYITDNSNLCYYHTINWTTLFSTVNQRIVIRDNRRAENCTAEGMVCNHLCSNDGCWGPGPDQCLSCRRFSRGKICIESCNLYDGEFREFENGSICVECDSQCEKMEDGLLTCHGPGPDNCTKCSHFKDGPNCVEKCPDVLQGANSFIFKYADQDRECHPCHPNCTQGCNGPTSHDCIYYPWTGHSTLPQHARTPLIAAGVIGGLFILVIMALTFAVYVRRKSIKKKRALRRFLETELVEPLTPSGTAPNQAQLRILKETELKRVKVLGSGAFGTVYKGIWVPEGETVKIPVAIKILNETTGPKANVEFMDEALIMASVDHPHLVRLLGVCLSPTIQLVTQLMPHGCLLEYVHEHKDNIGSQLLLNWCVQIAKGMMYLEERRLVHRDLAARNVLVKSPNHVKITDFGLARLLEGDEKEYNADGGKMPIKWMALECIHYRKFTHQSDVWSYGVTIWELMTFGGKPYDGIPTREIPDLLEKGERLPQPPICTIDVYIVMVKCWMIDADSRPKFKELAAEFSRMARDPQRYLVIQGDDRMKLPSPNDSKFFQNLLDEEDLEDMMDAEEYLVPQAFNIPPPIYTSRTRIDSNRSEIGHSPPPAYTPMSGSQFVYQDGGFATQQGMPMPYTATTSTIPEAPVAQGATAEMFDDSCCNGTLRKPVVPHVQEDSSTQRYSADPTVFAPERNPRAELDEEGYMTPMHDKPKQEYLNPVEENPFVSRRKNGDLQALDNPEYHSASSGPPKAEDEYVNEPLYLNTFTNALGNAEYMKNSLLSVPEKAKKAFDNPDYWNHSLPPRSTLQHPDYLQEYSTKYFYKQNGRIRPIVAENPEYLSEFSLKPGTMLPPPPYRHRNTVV
Test: cell-based or functional assay
Attribute Measured: CM % Agonism AVG

Entry huNRG1(S177-Q237)(3B8)::GG::huFcSEFL2 (Pb) (Fc fusion) SHLVKCGERDKSFCVNGGECFMVERSSIPSRYLCKCPNEFTGDRCQDFFLASFYKAEELYQGGDKTHTCPPCPAPELLGGPSVFLFPPKPKDTLMISRTPEVTCVVVDVSHEDPEVKFNWYVDGVEVHNAKTKPCEEQYGSTYRCVSVLTVLHQDWLNGKEYKCKVSNKALPAPIEKTISKAKGQPREPQVYTLPPSREEMTKNQVSLTCLVKGFYPSDIAVEWESNGQPENNYKTTPPVLDSDGSFFLYSKLTVDKSRWQQGNVFSCSVMHEALHNHYTQKSLSLSPGK ; CM % Agonism AVG = < 50%
